All figures here come from patent US20220195057A1.

target: T1, human chemokine (C-C motif) receptor 8 (CCR8) protein (human, UniProt P51685 1-355); experiment: cell binding, CCR8-expressing CHO-K1 cells, curve fit
T1 construct: whole, on cells; also called human CCR8
# Span per entry
Quantity Name: Span

INSERT INTO results (binder, quantity_name, observed_result) VALUES
  ('88-H3L2 (antibody, V domains shown, Humanized 88D2C6) VH: EVQLVESGGGLVQPGGSLKLSCAASGFTFNPNAMNWVRQASGKGLEWVARIRSKSNNYATYYADSVKDRFTISRDDSKNTLYLQMNNLKTEDTAVYYCVRGKDDGYRHYAMDYWGQGTTVTVSS VL: DIVMTQSPLSLPVTPGEPASISCRSSKSLLHSNANTYLYWFLQKPGQSPQLLIYRMSNLASGVPDRFSGSGSGTAFTLKISRVEAEDVGVYYCMQHLEYPFTFGGGTKVEIK', 'Span', 28600),
  ('88-H3L3 (antibody, V domains shown, Humanized 88D2C6) VH: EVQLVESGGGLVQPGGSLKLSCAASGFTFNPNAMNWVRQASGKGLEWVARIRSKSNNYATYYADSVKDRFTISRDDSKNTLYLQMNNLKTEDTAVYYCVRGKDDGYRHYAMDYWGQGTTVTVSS VL: DIVMTQAPLSLPVTPGEPVSISCRSSKSLLHSNANTYLYWFLQKPGQSPQLLIYRMSNLASGVPDRFSGSGSGTAFTLKISRVEAEDVGVYYCMQHLEYPFTFGGGTKLEIK', 'Span', 28700),
  ('88-H1L3 (antibody, V domains shown, Humanized 88D2C6) VH: EVQLVESGGGLVQPGGSLKLSCAASGFTFNPNAMNWVRQASGKGLEWVGRIRSKSNNYATYYADSVKDRFTISRDDSKNTAYLQMNSLKTEDTAVYYCTRGKDDGYRHYAMDYWGQGTTVTVSS VL: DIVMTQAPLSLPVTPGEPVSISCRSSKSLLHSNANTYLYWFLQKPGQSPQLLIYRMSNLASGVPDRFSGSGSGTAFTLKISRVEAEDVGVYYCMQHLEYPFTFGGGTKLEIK', 'Span', 29800),
  ('88-H2L2 (antibody, V domains shown, Humanized 88D2C6) VH: EVQLVESGGGLVQPGGSLKLSCAASGFTFNPNAMNWVRQASGKGLEWVGRIRSKSNNYATYYADSVKDRFTISRDDSKNTAYLQMNNLKTEDTAVYYCVRGKDDGYRHYAMDYWGQGTTVTVSS VL: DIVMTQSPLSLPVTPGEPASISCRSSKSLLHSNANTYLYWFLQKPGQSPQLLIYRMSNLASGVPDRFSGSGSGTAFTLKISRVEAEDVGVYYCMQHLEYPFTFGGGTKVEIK', 'Span', 30300),
  ('88-H2L3 (antibody, V domains shown, Humanized 88D2C6) VH: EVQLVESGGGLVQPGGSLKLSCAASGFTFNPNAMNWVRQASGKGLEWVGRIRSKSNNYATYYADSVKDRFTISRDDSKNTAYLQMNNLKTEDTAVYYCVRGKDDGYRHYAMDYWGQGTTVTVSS VL: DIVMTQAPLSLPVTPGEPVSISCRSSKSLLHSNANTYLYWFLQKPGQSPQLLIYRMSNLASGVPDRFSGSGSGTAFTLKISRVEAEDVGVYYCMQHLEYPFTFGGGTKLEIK', 'Span', 29300),
  ('88-xi (antibody, V domains shown, also called 88D2C6; chimeric 88D2C6) VH: EVQLVETGGGLVQPKGSLKLSCAASGFTFNPNAMNWVRQAPGKGLEWVARIRSKSNNYATYYADSVKDRFTISRDDSQSMLYLQMNNLKTEDTAMYYCVRGKDDGYRHYAMDYWGQGTSVTVSS VL: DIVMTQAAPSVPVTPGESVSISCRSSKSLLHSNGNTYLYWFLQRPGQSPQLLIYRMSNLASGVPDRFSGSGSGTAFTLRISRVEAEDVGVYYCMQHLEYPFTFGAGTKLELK', 'Span', 30300);
